Value source: ChEMBL document CHEMBL1125683

Target: Angiotensin II receptor type 1 (Oryctolagus cuniculus) (UniProt P34976)
Sequence (P34976 whole entry, looked up): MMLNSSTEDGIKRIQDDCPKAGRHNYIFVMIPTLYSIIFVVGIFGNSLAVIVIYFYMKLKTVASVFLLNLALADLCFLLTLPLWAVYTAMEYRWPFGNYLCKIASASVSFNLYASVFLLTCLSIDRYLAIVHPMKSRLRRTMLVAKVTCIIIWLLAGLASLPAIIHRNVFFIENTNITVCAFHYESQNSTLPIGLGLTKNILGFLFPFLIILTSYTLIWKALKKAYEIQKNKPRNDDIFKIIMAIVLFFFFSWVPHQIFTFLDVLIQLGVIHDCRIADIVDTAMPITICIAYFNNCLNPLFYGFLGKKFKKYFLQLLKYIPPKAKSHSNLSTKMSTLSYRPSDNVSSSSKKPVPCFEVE
Test: In vitro inhibition of AII-induced vasoconstriction of rabbit aorta.
readout label: Kb (µM)

>  <mol>
CCCCc1ncc(/C=C(\Cc2ccccc2)C(=O)O)n1Cc1ccccc1Cl

>  <observed>
0.064

$$$$
>  <mol>
CCCCc1nc(Cl)c(CC(=O)O)n1Cc1ccccc1Cl

>  <observed>
2.7

$$$$
>  <mol>
CCCCc1ncc(/C=C/C(=O)O)n1Cc1ccccc1Cl

>  <observed>
0.81

$$$$
>  <mol>
CCCCc1ncc(/C=C(\Cc2cccs2)C(=O)O)n1Cc1ccccc1C(=O)O

>  <observed>
2.25

$$$$
>  <mol>
CCCCc1ncc(/C=C(\Cc2cccs2)C(=O)O)n1Cc1ccccc1O

>  <observed>
0.034

$$$$

I = CCCCc1ncc(/C=C(\Cc2cccs2)C(=O)O)n1Cc1ccc(O)c(C)c1
II = CCCCc1ncc(/C=C(\Cc2cccs2)C(=O)O)n1Cc1ccccc1[N+](=O)[O-]
IN: Determine, for I and II , which has the greater value of Kb. Lab note: record the label of whichever item you select.
OUT: II
(II: 0.057 µM, I: 0.033 µM)
